target: ΔF508-CFTR (Homo sapiens, UniProt P13569, DEL508-508); construct: host or cells: CFBE41o-, doxycycline-inducible; test: CFTR cell surface levels using HRP-tagged ΔF508-CFTR expressing CFBE cells, in the presence of a co-corrector; assay type: cell-based; conditions: HRP-tagged ΔF508-CFTR CFBE cells, in the presence of 3 μM co-corrector
Sequence (P13569 with tags, fused parts or gaps DEL508-508): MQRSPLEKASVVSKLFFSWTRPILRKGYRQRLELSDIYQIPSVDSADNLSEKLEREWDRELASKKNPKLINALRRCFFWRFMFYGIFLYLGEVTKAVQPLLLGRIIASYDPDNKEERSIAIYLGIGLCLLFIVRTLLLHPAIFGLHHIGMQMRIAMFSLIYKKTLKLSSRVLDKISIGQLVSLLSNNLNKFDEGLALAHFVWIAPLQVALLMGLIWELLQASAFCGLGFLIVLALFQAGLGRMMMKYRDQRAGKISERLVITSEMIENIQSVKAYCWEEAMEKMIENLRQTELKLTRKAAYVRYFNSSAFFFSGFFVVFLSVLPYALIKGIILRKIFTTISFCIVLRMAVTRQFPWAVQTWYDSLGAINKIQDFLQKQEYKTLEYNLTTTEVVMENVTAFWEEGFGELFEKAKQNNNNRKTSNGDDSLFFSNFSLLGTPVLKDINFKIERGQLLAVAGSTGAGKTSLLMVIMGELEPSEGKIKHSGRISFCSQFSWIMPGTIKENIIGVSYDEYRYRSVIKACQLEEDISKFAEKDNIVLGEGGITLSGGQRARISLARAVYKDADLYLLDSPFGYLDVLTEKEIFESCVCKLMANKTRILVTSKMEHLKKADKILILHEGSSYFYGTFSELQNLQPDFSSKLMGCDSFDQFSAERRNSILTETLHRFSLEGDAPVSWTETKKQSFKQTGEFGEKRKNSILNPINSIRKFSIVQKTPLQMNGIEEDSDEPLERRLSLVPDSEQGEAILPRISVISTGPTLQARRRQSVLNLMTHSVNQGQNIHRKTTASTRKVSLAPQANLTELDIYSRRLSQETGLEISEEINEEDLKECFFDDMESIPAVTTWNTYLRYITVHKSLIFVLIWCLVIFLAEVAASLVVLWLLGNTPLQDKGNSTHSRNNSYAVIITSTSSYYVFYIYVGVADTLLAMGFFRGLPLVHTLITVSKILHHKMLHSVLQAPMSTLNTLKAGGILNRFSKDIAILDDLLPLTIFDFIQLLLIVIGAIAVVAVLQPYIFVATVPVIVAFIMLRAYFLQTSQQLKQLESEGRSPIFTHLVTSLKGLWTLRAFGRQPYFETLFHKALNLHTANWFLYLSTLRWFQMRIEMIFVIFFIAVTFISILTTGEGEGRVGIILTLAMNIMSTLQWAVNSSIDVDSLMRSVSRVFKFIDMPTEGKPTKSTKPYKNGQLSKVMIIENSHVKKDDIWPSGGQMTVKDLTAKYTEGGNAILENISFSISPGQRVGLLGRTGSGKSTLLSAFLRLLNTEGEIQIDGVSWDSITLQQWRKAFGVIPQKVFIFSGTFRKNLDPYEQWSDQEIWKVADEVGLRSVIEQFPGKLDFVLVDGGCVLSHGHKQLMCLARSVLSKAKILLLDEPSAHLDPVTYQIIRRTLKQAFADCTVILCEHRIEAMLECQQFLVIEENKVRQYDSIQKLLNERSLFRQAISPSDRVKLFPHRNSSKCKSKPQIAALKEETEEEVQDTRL
readout label: % Activation (%)
Please state the figure in %; there is no need to write the unit.

Solved cases (3 shown):
                                   compound                             tested_system  readout_label  data_value
0  CC(C)c1nn(C2CCCCC2)c2nc(C(=O)NS(C)(=O)=O)cc(-c3ccc(N4CCCC(F)C4)nc3)c12 (stereo not drawn) [Compound 108]  ΔF508-CFTR (Homo sapiens, UniProt P13569, DEL508-508)   % Activation       428.3
1  CC(C1CCN(c2cc(C(=O)NS(=O)(=O)N(C)C)nc3c2c(C2CCC2)nn3-c2ccc(F)cc2)CC1)N1CCOCC1 (stereo not drawn) [Compound 440]  ΔF508-CFTR (Homo sapiens, UniProt P13569, DEL508-508)   % Activation      543.55
2  CC(C)c1nn(C2CCCCC2)c2nc(C(=O)NS(C)(=O)=O)cc(-c3ccc(N(C)C)nc3)c12 [Compound 22]  ΔF508-CFTR (Homo sapiens, UniProt P13569, DEL508-508)   % Activation      371.55

Could you share what % Activation was measured for COc1cc(-n2nc(C3CCC3)c3c(N4CCC(N5CCOCC5)CC4)cc(C(=O)NS(C)(=O)=O)nc32)ccn1 [Compound 474] , tested on ΔF508-CFTR (Homo sapiens, UniProt P13569, DEL508-508)?
390.2

Could you share what % Activation was measured for COCC1CCN(c2cc(C(=O)NS(=O)(=O)C3(C)CC3)nc3c2c(C2CCC2)nn3-c2ccccc2)CC1 [Compound 374] , tested on ΔF508-CFTR (Homo sapiens, UniProt P13569, DEL508-508)?
426.05

Could you share what % Activation was measured for O=C(NS(=O)(=O)NC1CCOCC1)c1cc(N2CCC(N3CCOCC3)CC2)c2c(C3CCC3)nn(-c3ccc(F)cc3)c2n1 [Compound 578] , tested on ΔF508-CFTR (Homo sapiens, UniProt P13569, DEL508-508)?
462.3

Could you share what % Activation was measured for CCS(=O)(=O)NC(=O)c1cc(-c2ccc(N3CCOCC3)cc2)c2c(C)nn(-c3cc(C)cc(C)c3)c2n1 [Compound 115] , tested on ΔF508-CFTR (Homo sapiens, UniProt P13569, DEL508-508)?
389.6

Could you share what % Activation was measured for CN(C)S(=O)(=O)NC(=O)c1cc(N2CCC(N3CCOCC3)CC2)c2c(C3CCC3)nn(-c3cccc(OC(F)F)c3)c2n1 [Compound 652] , tested on ΔF508-CFTR (Homo sapiens, UniProt P13569, DEL508-508)?
499.65

Could you share what % Activation was measured for COCC1CCN(c2cc(C(=O)NS(=O)(=O)c3cn(C)cn3)nc3c2c(C2CCC2)nn3-c2ccccc2)CC1 [Compound 286] , tested on ΔF508-CFTR (Homo sapiens, UniProt P13569, DEL508-508)?
500.55

Could you share what % Activation was measured for CS(=O)(=O)NC(=O)c1cc(N2CCC(N3CCC(C#N)C3)CC2)c2c(C3CCC3)nn(-c3ccc(F)cc3)c2n1 (stereo not drawn) [Compound 565] , tested on ΔF508-CFTR (Homo sapiens, UniProt P13569, DEL508-508)?
637.53

Could you share what % Activation was measured for O=C(NS(=O)(=O)CCCN1CCOCC1)c1cc(N2CCC[C@@H](CO)C2)c2c(C3CCC3)nn(-c3ccccc3)c2n1 [Compound 350] , tested on ΔF508-CFTR (Homo sapiens, UniProt P13569, DEL508-508)?
274.6

Could you share what % Activation was measured for CS(=O)(=O)NC(=O)c1cc(-c2ccc(N3CCC(C#N)CC3)nc2)c2c(C3CC(F)C3)nn(-c3ccccc3)c2n1 (stereo not drawn) [Compound 197] , tested on ΔF508-CFTR (Homo sapiens, UniProt P13569, DEL508-508)?
390.8

Could you share what % Activation was measured for CN(C)S(=O)(=O)NC(=O)c1cc(N2CCC3(CC2)CCN(C2CC2)CC3)c2c(C3CCC3)nn(-c3ccc(F)cc3)c2n1 [Compound 584] , tested on ΔF508-CFTR (Homo sapiens, UniProt P13569, DEL508-508)?
337.55

Could you share what % Activation was measured for CC(C)c1nn(C2CCCCC2)c2nc(C(=O)NS(C)(=O)=O)cc(-c3ccc(N(C)C4CCOCC4)nc3)c12 [Compound 51] , tested on ΔF508-CFTR (Homo sapiens, UniProt P13569, DEL508-508)?
420.67

Could you share what % Activation was measured for COCC1CCN(c2cc(C(=O)NS(=O)(=O)C3CCNCC3)nc3c2c(C2CCC2)nn3-c2ccccc2)CC1 [Compound 368] , tested on ΔF508-CFTR (Homo sapiens, UniProt P13569, DEL508-508)?
350.23

Could you share what % Activation was measured for CC(=O)N1CCN(C2CCN(c3cc(C(=O)NS(=O)(=O)N(C)C)nc4c3c(C3CCC3)nn4-c3ccc(F)cc3)CC2)CC1 [Compound 493] , tested on ΔF508-CFTR (Homo sapiens, UniProt P13569, DEL508-508)?
480.78

Could you share what % Activation was measured for CS(=O)(=O)NC(=O)c1cc(N2CCC(OC3CCCCC3)CC2)c2c(C3CCC3)nn(-c3ccccc3)c2n1 [Compound 229] , tested on ΔF508-CFTR (Homo sapiens, UniProt P13569, DEL508-508)?
418.65

Could you share what % Activation was measured for COC1CCN(c2cc(C(=O)NS(C)(=O)=O)nc3c2c(C(C)C)nn3-c2cccc(C)c2)CC1 [Compound 117] , tested on ΔF508-CFTR (Homo sapiens, UniProt P13569, DEL508-508)?
417.92

Could you share what % Activation was measured for COCCS(=O)(=O)NC(=O)c1cc(OCC2CCOCC2)c2c(C3CCC3)nn(-c3ccccc3)c2n1 [Compound 315] , tested on ΔF508-CFTR (Homo sapiens, UniProt P13569, DEL508-508)?
315.5

====

target: ΔF508-CFTR (Homo sapiens, UniProt P13569, DEL508-508); construct: host or cells: CFBE41o-, doxycycline-inducible; experiment: CFTR cell surface levels using HRP-tagged ΔF508-CFTR expressing CFBE cells, intrinsic corrector capacity; format: cell-based; details: HRP-tagged ΔF508-CFTR expressing CFBE41o- cells; compound alone (intrinsic corrector capacity); 20 hours at 33° C.; read-out: EC50
Each entry below carries its reported EC50.

Solved cases (10 shown):
>>> df
                                   molecule                             tested_system  data_value
0  Cc1nn(-c2ccc(F)c(F)c2)c2nc(C(=O)NS(C)(=O)=O)cc(-c3ccc(N4CCOCC4)cc3)c12  ΔF508-CFTR (Homo sapiens, UniProt P13569, DEL508-508)    0.997 µM
1  CC(C1CCN(c2cc(C(=O)NS(C)(=O)=O)nc3c2c(C2CCC2)nn3-c2ccc(F)cc2)CC1)N1CCOCC1 (centres unmarked)  ΔF508-CFTR (Homo sapiens, UniProt P13569, DEL508-508)    0.111 µM
2  CC(C)c1nn(-c2cccc(N3CC(O)C3)c2)c2nc(C(=O)NS(C)(=O)=O)cc(-c3ccc(N4CCOCC4)cc3)c12  ΔF508-CFTR (Homo sapiens, UniProt P13569, DEL508-508)    0.908 µM
3  COC1CCCN(C2CCN(c3cc(C(=O)NS(=O)(=O)N(C)C)nc4c3c(C3CCC3)nn4-c3ccc(F)cc3)CC2)C1 (centres unmarked)  ΔF508-CFTR (Homo sapiens, UniProt P13569, DEL508-508)    0.295 µM
4  CC(C)Oc1nn(C2CCCCC2)c2nc(C(=O)NS(C)(=O)=O)cc(-c3ccc(CN4CC5CN(C)CC5C4)cc3)c12 (centres unmarked)  ΔF508-CFTR (Homo sapiens, UniProt P13569, DEL508-508)    0.573 µM
5  CC(C)c1nn(-c2ccc(F)cc2)c2nc(C(=O)NS(C)(=O)=O)cc(OCC3(C)COC3)c12  ΔF508-CFTR (Homo sapiens, UniProt P13569, DEL508-508)    0.622 µM
6  CS(=O)(=O)NC(=O)c1cc(-c2ccc(N3CCC(C#N)CC3)nc2)c2c(OC3CCNCC3)nn(-c3ccccc3)c2n1  ΔF508-CFTR (Homo sapiens, UniProt P13569, DEL508-508)     > 10 µM
7  CS(=O)(=O)NC(=O)c1cc(N2CCC(OC3CCCCC3)CC2)c2c(C3CCC3)nn(-c3ccccc3)c2n1  ΔF508-CFTR (Homo sapiens, UniProt P13569, DEL508-508)    0.414 µM
8  COc1ccc(-n2nc(C(C)C)c3c(-c4ccc(N(C)C)cc4)cc(C(=O)NS(C)(=O)=O)nc32)cn1  ΔF508-CFTR (Homo sapiens, UniProt P13569, DEL508-508)     1.23 µM
9  CS(=O)(=O)NC(=O)c1cc(N2CCC(S(C)(=O)=O)CC2)c2c(C3CCC3)nn(-c3ccccc3)c2n1  ΔF508-CFTR (Homo sapiens, UniProt P13569, DEL508-508)    0.967 µM

With those in mind, consider the next molecule.
Can you share its EC50? I mean this molecule: CN1CCN(C(=O)[C@@H]2CCCN2S(=O)(=O)NC(=O)c2cc(OCC3CCOCC3)c3c(C4CCC4)nn(-c4ccccc4)c3n2)CC1
5 µM
